Test system: bloodstream trypomastigotes (BTs) of T. cruzi (Y strain)
method: Trypanocidal assay against bloodstream trypomastigotes
Format: cell-based, Trypanosoma cruzi
conditions: Trypanosoma cruzi, 24 h, read-out: EC50 (µM), BTs
measured parameter: EC50 (µM)
Please state the figure in µM; there is no need to write the unit.

# return recorded EC50 for entry O=C(Cn1ccnc1[N+](=O)[O-])NCc1ccccc1 [Bz, benznidazole, reference compound]
12.9
